# Target: RNA-binding protein pos-1 (Caenorhabditis elegans)
# Sequence (G5EF15 whole entry, the tested form may be a part): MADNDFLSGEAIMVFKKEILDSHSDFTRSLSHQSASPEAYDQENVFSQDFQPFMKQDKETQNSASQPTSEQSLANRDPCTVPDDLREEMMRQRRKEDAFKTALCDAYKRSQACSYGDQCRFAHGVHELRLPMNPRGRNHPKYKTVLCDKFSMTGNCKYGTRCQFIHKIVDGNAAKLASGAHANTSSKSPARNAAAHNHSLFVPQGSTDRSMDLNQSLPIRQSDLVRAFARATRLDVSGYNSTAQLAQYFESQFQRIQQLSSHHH
# Test description: disruptors of C. elegans POS-1 RNA interaction – biochemical, fluorescence polarization, dose response (AID 1964);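 further: purified POS-1 fused to maltose binding protein made in E. coli; potency of compounds blocking POS-1 binding to fluorescent RNA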
Activity calls are given as the source filed them.
# EC50 per entry

- Molecule: "Oc1ccc2ccccc2c1/C=N/c1ccc(N2CCOCC2)cc1"
  EC50: "> 300 µM (not active)"
- Molecule: "COc1ccc(/C=C(\\C#N)C(=O)NCC2CCCO2)cc1OC (stereo unspecified)"
  EC50: "> 300 µM (not active)"
- Molecule: "CC1C2(C)OC(=N)C(C#N)(C(C)O2)C1(C#N)C#N (stereo unspecified)"
  EC50: "> 300 µM (not active)"
- Molecule: "Cc1cc(/C=C2\\C(=O)NC(=O)N(c3ccc(F)cc3)C2=O)c(C)n1-c1ccc(C(=O)O)cc1"
  EC50: "> 300 µM (not active)"
- Molecule: "O=[N+]([O-])c1c(O)nc(/C=C\\c2ccc(O)c(O)c2)nc1O"
  EC50: "250 µM (active)"
- Molecule: "Cn1ncc2c(NNC(=O)Cc3ccccc3)ncnc21"
  EC50: "> 300 µM (not active)"

====

# Target: Glucose-6-phosphate 1-dehydrogenase (Homo sapiens, UniProt P11413)
# Sequence (P11413 whole entry): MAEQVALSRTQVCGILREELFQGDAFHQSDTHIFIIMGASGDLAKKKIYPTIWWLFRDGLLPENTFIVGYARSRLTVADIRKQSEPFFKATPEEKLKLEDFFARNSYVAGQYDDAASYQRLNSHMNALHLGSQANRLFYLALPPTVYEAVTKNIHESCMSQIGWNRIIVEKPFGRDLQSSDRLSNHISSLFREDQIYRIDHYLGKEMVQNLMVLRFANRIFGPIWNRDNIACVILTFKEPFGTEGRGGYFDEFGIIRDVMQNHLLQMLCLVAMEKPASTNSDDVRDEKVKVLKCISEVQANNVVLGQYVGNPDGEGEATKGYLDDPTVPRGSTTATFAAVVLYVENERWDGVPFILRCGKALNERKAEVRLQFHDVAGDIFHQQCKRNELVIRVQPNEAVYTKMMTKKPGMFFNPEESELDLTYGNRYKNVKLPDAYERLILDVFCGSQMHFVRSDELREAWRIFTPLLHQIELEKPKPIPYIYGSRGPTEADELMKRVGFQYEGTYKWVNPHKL
# Test description: inhibition of Homo sapiens G6PD, dose series – biochemical, fluorescence, selectivity assay for P. falciparum G6PD inhibitor project, dose response (AID 504792)
# Assay type: functional
Active and inactive are the calls of the source.
Outcome codes: true (1) (active), false (0) (inactive)

- Compound: "CCc1c(C#N)c(S)nc(C)c1C(=O)Nc1ccccc1"
  Discrete label: "false (0)"
- Compound: "O=C(Nc1ccc(N2CCCC2)cc1)c1cccc(-c2cc3ccccc3oc2=O)c1"
  Discrete label: "false (0)"
- Compound: "Cc1nnc(N/N=C\\c2ccc(-c3cccc(C(=O)O)c3)o2)n1N"
  Discrete label: "false (0)"
- Compound: "c1nc2nc[nH]c(SSc3[nH]cnc4ncnc3-4)c-2n1"
  Discrete label: "false (0)"
- Compound: "O=C1Nc2cc(C(=O)NCCCN3CCCC3)ccc2S/C1=C/c1cccc(Cl)c1"
  Discrete label: "false (0)"
- Compound: "Fc1cccc(Cl)c1CNc1ccc(N2CCCC2)cc1"
  Discrete label: "false (0)"
- Compound: "O=C(CSc1nc2cc(Cl)ccc2[nH]1)NC1CCCc2ccccc21 (centres undefined)"
  Discrete label: "false (0)"
- Compound: "COC(=O)c1ccccc1/N=C/C1=C(O)c2c(C)nn(-c3ccccn3)c2CC1"
  Discrete label: "false (0)"
- Compound: "Cc1ccc(-n2sc3cc(F)ccc3c2=O)c(C)c1"
  Discrete label: "true (1)"

====

# Target: Hepatocyte nuclear factor 4-alpha (Homo sapiens);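 further: biochemical luminescence-based dose-response counterscreen measuring inhibition of HNF4 dimerization, run alongside a screen for blockers of ABHD5–perilipin-5 interaction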;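 further: split luciferase complementation of HNF4 fusion proteins in cell lysate measuring dimerization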
# Sequence (P41235 whole entry): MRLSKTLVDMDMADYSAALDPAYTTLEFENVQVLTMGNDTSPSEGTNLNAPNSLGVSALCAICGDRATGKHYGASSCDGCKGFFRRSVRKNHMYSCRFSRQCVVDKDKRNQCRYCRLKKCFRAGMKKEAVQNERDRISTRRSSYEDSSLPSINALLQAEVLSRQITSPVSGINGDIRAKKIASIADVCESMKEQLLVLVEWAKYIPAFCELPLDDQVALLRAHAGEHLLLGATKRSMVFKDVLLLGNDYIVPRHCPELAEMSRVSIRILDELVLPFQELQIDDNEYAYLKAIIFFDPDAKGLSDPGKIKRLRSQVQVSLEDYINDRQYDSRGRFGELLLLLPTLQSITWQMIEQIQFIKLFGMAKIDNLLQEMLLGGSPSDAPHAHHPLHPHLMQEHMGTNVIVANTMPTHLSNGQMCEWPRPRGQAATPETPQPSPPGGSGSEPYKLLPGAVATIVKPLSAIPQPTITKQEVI
# Assay type: functional, cell-based
Activity calls are given as the source filed them.
Outcome codes: 1.0 for active, 0.0 for inactive

- Compound: "O=C(NC1CCCCC1)C(c1ccc(C(F)(F)F)cc1)n1c(=O)c(-c2ccco2)nc2ccccc21 (centres undefined)"
  Discrete label: 1.0
- Compound: "COc1ccc(C(C(=O)NCc2ccccc2)n2c(=O)c(-c3ccco3)nc3ccccc32)cc1 (centres undefined)"
  Discrete label: 1.0
- Compound: "CCCCCNC(=O)C(c1ccc(C#N)cc1)n1c(=O)c(-c2ccco2)nc2ccccc21 (centres undefined)"
  Discrete label: 1.0
- Compound: "COc1ccc(NC(=O)C(c2ccnc3ccccc23)n2c(=O)c(-c3ccco3)nc3ccccc32)cc1 (centres undefined)"
  Discrete label: 0.0

====

# Target: Fatty acid synthase (Homo sapiens, UniProt P49327)
# Sequence (P49327 whole entry): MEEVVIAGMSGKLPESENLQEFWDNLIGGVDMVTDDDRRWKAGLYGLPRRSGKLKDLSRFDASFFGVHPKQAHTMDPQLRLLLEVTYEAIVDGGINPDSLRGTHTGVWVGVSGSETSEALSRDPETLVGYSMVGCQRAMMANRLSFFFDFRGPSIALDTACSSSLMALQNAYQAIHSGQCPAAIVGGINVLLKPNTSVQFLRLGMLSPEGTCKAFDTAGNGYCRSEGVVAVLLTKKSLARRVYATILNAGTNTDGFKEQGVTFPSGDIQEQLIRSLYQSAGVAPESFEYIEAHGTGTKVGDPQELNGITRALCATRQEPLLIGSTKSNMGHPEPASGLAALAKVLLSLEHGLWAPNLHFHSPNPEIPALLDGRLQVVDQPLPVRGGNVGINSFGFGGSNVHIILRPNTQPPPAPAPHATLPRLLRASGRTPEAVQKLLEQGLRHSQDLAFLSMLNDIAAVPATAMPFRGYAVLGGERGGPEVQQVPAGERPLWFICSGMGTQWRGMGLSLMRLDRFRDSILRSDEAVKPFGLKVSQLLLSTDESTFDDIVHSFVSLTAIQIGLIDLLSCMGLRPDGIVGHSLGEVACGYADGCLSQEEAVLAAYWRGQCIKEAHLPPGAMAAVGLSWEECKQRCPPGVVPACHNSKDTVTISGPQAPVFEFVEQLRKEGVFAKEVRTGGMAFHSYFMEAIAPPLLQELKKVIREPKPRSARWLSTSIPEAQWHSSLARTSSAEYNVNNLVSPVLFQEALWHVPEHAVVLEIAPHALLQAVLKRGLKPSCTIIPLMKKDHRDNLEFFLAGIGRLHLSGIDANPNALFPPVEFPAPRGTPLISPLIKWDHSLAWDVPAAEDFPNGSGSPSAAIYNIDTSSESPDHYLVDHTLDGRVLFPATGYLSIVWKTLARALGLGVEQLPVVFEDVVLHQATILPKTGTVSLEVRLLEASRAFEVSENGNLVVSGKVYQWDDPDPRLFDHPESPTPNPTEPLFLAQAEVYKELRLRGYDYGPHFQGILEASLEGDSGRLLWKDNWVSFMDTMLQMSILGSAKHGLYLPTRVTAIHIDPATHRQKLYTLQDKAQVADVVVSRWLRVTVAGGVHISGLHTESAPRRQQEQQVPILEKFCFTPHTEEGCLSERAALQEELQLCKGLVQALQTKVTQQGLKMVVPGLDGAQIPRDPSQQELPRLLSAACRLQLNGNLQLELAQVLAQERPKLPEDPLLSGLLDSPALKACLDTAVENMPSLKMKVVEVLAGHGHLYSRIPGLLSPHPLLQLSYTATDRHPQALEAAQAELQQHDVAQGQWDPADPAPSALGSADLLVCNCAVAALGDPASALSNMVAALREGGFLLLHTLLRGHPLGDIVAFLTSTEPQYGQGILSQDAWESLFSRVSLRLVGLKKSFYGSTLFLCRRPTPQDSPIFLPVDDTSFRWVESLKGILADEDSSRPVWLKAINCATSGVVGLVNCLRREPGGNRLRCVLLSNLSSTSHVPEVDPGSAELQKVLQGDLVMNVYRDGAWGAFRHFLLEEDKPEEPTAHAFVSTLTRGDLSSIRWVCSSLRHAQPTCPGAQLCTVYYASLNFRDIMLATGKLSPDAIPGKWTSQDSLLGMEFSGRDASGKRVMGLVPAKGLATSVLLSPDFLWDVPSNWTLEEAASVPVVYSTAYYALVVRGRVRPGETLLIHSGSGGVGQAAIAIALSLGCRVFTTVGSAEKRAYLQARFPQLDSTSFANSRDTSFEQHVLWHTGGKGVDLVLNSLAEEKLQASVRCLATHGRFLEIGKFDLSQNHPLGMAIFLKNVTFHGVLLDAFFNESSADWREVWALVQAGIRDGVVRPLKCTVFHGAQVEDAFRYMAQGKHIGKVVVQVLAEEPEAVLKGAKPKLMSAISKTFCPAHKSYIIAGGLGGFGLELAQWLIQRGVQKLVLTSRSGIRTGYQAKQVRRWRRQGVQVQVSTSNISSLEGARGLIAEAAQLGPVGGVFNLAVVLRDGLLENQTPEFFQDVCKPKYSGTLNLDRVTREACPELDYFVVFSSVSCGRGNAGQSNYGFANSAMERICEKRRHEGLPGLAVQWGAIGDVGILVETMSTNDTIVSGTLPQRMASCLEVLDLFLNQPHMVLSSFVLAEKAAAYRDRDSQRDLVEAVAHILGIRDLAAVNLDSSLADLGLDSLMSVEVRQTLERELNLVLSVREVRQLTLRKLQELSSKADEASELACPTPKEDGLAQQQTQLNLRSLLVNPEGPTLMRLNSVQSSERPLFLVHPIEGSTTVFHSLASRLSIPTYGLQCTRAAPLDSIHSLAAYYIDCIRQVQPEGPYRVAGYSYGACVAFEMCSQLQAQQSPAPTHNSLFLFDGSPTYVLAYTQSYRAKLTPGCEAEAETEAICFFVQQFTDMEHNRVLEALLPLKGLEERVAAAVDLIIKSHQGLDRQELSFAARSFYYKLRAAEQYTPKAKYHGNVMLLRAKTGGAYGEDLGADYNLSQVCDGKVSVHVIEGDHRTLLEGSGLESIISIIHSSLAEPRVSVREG
# Test description: inhibition of human FAS-TE enzyme activity – biochemical, kinetic fluorescence intensity, dose response (AID 624326);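 further: rate of fluorescence rise from hydrolysis of a fluorogenic O-methyl fluorescein ester substrate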
# Format: functional
Calls of active or inactive are those of the source.

- Compound: "Cc1ccc(NC(=O)CN(C)C(=O)c2ccc(Cl)c([N+](=O)[O-])c2)cc1"
  IC50: "6.26 µM (active)"
- Compound: "CCc1nc2c(OCc3ccc(Cl)cc3)cccn2c1N(C=O)Cc1ccccc1"
  IC50: "3.71 µM (active)"
- Compound: "C/C=C/C=N/NC(=O)CN(c1ccc(Br)cc1)S(=O)(=O)c1ccccc1"
  IC50: "10.1 µM (active)"
- Compound: "COc1ccc(CN(C)C(=O)COC(=O)c2cc([N+](=O)[O-])ccc2N2CCCC2)c(OC)c1OC"
  IC50: "6.71 µM (active)"
- Compound: "CCOC(=O)[C@@H]1[C@H]2COc3cc(OC)ccc3[C@H]2N2C(=O)N(c3cccc(Cl)c3)C(=O)[C@@]12C"
  IC50: "13.6 µM (active)"
- Compound: "COc1ccc(-c2cc(=O)oc3c(C)c(OCc4nn[nH]n4)ccc23)cc1"
  IC50: "5.32 µM (active)"
- Compound: "CC1CCN(C(=O)COC(=O)c2cc([N+](=O)[O-])ccc2N2CCOCC2)CC1"
  IC50: "5.23 µM (active)"
- Compound: "CC(=O)N1N=C(c2cccc([N+](=O)[O-])c2)OC1c1cccc(Br)c1 (centres undefined)"
  IC50: "11.9 µM (active)"
- Compound: "CN(c1ccccc1)S(=O)(=O)c1cccc(NC(=O)CCNC(=O)c2ccc([N+](=O)[O-])cc2)c1"
  IC50: "9.59 µM (active)"

====

# Target: Cytochrome P450 2C19 (Homo sapiens)
# Sequence (P33261 whole entry): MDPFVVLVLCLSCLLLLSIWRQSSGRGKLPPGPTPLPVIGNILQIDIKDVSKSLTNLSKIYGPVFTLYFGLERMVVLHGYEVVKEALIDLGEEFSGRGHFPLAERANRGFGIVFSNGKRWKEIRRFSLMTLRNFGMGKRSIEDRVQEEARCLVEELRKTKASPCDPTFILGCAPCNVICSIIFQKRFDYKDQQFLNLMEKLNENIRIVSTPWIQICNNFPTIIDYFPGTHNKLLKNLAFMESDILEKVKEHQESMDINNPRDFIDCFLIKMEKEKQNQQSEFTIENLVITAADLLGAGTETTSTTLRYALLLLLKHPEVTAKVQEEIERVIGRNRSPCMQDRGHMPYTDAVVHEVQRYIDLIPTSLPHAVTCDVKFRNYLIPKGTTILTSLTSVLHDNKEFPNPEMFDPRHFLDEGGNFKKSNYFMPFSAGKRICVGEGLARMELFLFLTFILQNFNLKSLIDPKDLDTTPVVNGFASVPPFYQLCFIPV
# Test description: Cytochrome panel assay with activity outcomes. Panel member name: p450-cyp2c19 Compounds with AC50 equal or less than 10 uM are considered active
# Assay type: functional
# Measurement conditions: read-out: AC50

- Molecule: "O=c1oc2ccccc2c(O)c1Cc1c(O)c2ccccc2oc1=O [DICUMAROL]"
  AC50: "10 µM (inconclusive)"
- Molecule: "COc1cc2nc(N3CCN(C(=O)[C@@H]4COc5ccccc5O4)CC3)nc(N)c2cc1OC.CS(=O)(=O)O"
  AC50: "0.501 µM (inconclusive)"
- Molecule: "COc1ccc(C(C)=O)c(OC(=O)c2ccco2)c1"
  AC50: "7.94 µM (inconclusive)"
- Molecule: "O=C(C1CCC(=O)N1Cc1ccccc1Cl)N1CCN(c2ccc(F)cc2)CC1 (stereo unspecified)"
  AC50: "20 µM (inconclusive)"
- Molecule: "C#CCCCCCCCCCCCCCCCC(=O)O"
  AC50: "25.1 µM (inconclusive)"
- Molecule: "Cc1cc(C)n(-c2nc(Nc3ccccc3C)nc(-n3nc(C)cc3C)n2)n1"
  AC50: "39.8 µM (inconclusive)"

====

# Test description: non-specific 3'UTR reporter inhibition in Clone20-Shn3RL – cell-based, Renilla luciferase, cherry-picked, counter-screen for Shn3 inhibitor project, dose response (AID 624133)
# Assay type: functional
The source made the active and inactive calls.

- Compound: "CC(=O)c1cn(Cc2ccccc2C#N)c2ccccc12"
  AC50: "4.28 µM (active)"
- Compound: "CC1=NNC(=O)/C1=C\\c1cn(-c2ccccc2)nc1-c1ccccc1"
  AC50: "9.3 µM (active)"
- Compound: "Cc1ccc(S(=O)(=O)CCC(=O)OCC(=O)Nc2cc(S(=O)(=O)N3CCOCC3)ccc2C)cc1"
  AC50: "1.76 µM (active)"
- Compound: "Cc1ccccc1CS(=O)(=O)c1ncc(Cl)c(C(=O)Nc2ccc(F)cc2)n1"
  AC50: "11.5 µM (active)"
- Compound: "CCCCC(=O)NC(c1ccc(C(C)C)cc1)c1ccc2cccnc2c1O (configuration not stated)"
  AC50: "0.331 µM (active)"
- Compound: "Oc1c(CN2CCN(c3ccc(F)cc3)CC2)cc(Cl)c2cccnc12"
  AC50: "0.534 µM (active)"
- Compound: "O=[N+]([O-])c1ccc(O)c(-c2cc(C(F)(F)F)nc(-c3ccccc3)n2)c1"
  AC50: "0.906 µM (active)"

====

# Target: Protein Wnt-3a (Mus musculus)
# Sequence (P27467 whole entry): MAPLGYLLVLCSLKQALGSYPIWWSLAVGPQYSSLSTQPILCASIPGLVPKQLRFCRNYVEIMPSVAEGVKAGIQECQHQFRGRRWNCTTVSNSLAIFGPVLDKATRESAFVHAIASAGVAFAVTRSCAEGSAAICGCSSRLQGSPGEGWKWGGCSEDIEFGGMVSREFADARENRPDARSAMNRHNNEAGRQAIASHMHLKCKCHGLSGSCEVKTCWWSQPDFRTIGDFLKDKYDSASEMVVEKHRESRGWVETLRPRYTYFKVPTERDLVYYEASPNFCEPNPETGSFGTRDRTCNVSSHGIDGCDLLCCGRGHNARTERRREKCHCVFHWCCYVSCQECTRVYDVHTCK
# Test description: antagonism of Wnt3a pathway luciferase reporter – Wnt-LIGHT cells, luminescence, selectivity assay for Gli-SUFU antagonist project, dose response (AID 651570);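 further: Wnt-LIGHT reporter cells stimulated with conditioned medium from Wnt3a-producing cells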
# Type: functional
# Measurement conditions: read-out: IC50_Mean
Activity calls are given as the source filed them.
# IC50 per entry

- Compound smiles: "COc1ccc(CN2CCC(C(=O)Nc3ccc(Oc4cccnc4)cc3)CC2)c(C)c1C"
  IC50: "5.34 µM (active)"
- Compound smiles: "COCCn1c(CN2CCC(Cc3ccccc3)CC2)nc2c1c(=O)n(C)c(=O)n2C"
  IC50: "2.11 µM (active)"
- Compound smiles: "CCCCn1c(CN(C)Cc2ccccc2)nc2c1c(=O)n(C)c(=O)n2C"
  IC50: "4.51 µM (active)"
- Compound smiles: "Cc1cc(-c2ccccc2)cc(-c2ccccc2)[n+]1C"
  IC50: "5.02 µM (active)"
- Compound smiles: "N=c1c(-c2nc3ccccc3[nH]2)cc(C(=O)c2ccco2)nn1-c1ccccc1"
  IC50: "16.8 µM (active)"
